# Tested on: systemic cytokines
# protocol notes: Plasma cytokine analysis after OVA/CpG/AddaVax vaccination (Example 3)
# Format: in vivo, mouse
# experimental context: 100 μg OVA, 50 μg CpG + inhibitor, AddaVax, 1 h
Readings of decrease of systemic TNF-α vs CpG for the listed compounds
Entry rule: numbers only, all in fold.

Please review the following examples before continuing.
>  <compound>
CC(C)Cc1ccc(C(C)C(=O)O)cc1 (centres unmarked) [ibuprofen]

>  <unit>
fold

>  <decrease of systemic TNF-α vs CpG>
1.4

$$$$
>  <compound>
CC1=C(CO)C(=O)O[C@@H]([C@@H](C)[C@H]2CC[C@H]3[C@@H]4C[C@H]5O[C@]56[C@@H](O)C=CC(=O)[C@]6(C)[C@H]4CC[C@]23C)C1 [WA, Withaferin A]

>  <unit>
fold

>  <decrease of systemic TNF-α vs CpG>
1.8

$$$$
>  <compound>
CC(=O)Nc1ccc(O)cc1 [acetaminophen]

>  <unit>
fold

>  <decrease of systemic TNF-α vs CpG>
1.8

$$$$
>  <compound>
COc1cc(CNC(=O)CCCCC=CC(C)C)ccc1O [capsaicin, 8-methyl-N-vanillyl-6-nonenamide]

>  <unit>
fold

>  <decrease of systemic TNF-α vs CpG>
28

$$$$

// next item, decrease of systemic TNF-α vs CpG requested
Q) # query: decrease of systemic TNF-α vs CpG of entry C=CCc1ccc(O)c(-c2ccc(O)c(CC=C)c2)c1 [honokiol]
A) 2.3
